biological target: CYP2D6 (Homo sapiens (Human), UniProt P10635); experiment: CYP P450 enzyme inhibition in pooled human liver microsome; details: inhibition at 10 μM, pooled HLM, dextromethorphan 5 μM
Sequence (P10635 whole entry): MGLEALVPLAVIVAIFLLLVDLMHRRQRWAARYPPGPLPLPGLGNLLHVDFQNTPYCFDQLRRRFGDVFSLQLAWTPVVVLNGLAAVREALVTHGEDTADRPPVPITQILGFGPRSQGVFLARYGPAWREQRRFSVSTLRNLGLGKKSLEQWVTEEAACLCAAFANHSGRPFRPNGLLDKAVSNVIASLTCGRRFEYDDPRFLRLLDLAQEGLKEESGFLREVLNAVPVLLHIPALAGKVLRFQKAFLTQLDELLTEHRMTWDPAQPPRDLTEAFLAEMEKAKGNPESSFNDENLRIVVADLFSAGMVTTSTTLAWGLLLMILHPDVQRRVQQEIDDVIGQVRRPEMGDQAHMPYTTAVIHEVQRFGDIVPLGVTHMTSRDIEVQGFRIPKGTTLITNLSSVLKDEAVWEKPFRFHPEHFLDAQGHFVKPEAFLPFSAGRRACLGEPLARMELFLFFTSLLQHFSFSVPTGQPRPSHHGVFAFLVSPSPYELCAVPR
Each entry gets label 0 if its CYP2D6 @ 10 μM stays under 30%, and label 1 if its CYP2D6 @ 10 μM is 30% or above.

{"COMPOUND": "FC(F)c1ccc(CCN2CCC(Nc3ncnc4[nH]ncc34)C(F)(F)C2)cc1 (single isomer, unassigned) [E1-1.6]", "STUDY_TARGET": "CYP2D6 (Homo sapiens (Human), UniProt P10635)", "CLASS_ASSIGNMENT": "label 0"}
{"COMPOUND": "FC(F)(F)c1ccc(C(F)(F)CN2CCC(Nc3ncnc4[nH]ncc34)CC2)cc1 [LX-1, reference compound]", "STUDY_TARGET": "CYP2D6 (Homo sapiens (Human), UniProt P10635)", "CLASS_ASSIGNMENT": "label 1"}
{"COMPOUND": "FC(F)c1ccc(CCN2CCC(Nc3ncnc4[nH]ncc34)C(F)(F)C2)cc1 (single isomer, unassigned) [E2-1.6]", "STUDY_TARGET": "CYP2D6 (Homo sapiens (Human), UniProt P10635)", "CLASS_ASSIGNMENT": "label 1"}
{"COMPOUND": "FC1(F)CN(CCc2ccc(Cl)cc2)CCC1Nc1ncnc2[nH]ncc12 (single isomer, unassigned) [E1-1.3]", "STUDY_TARGET": "CYP2D6 (Homo sapiens (Human), UniProt P10635)", "CLASS_ASSIGNMENT": "label 0"}
{"COMPOUND": "Fc1cc(Cl)ccc1CCN1CCC(Nc2ncnc3[nH]ncc23)C(F)(F)C1 (single isomer, unassigned) [E1-1.16]", "STUDY_TARGET": "CYP2D6 (Homo sapiens (Human), UniProt P10635)", "CLASS_ASSIGNMENT": "label 0"}
{"COMPOUND": "FCc1ccc(CCN2CCC(Nc3ncnc4[nH]ncc34)C(F)(F)C2)cc1 (single isomer, unassigned) [E1-1.7]", "STUDY_TARGET": "CYP2D6 (Homo sapiens (Human), UniProt P10635)", "CLASS_ASSIGNMENT": "label 0"}
{"COMPOUND": "FC1(F)CN(CCc2ccc(Cl)cc2)CCC1Nc1ncnc2[nH]ncc12 (single isomer, unassigned) [E2-1.3]", "STUDY_TARGET": "CYP2D6 (Homo sapiens (Human), UniProt P10635)", "CLASS_ASSIGNMENT": "label 0"}

====

target: hERG channel (Homo sapiens (Human)); experiment: hERG channel inhibition, whole cell patch clamp in HEK293 cells; details: hERG IC50
Sequence (Q12809 whole entry): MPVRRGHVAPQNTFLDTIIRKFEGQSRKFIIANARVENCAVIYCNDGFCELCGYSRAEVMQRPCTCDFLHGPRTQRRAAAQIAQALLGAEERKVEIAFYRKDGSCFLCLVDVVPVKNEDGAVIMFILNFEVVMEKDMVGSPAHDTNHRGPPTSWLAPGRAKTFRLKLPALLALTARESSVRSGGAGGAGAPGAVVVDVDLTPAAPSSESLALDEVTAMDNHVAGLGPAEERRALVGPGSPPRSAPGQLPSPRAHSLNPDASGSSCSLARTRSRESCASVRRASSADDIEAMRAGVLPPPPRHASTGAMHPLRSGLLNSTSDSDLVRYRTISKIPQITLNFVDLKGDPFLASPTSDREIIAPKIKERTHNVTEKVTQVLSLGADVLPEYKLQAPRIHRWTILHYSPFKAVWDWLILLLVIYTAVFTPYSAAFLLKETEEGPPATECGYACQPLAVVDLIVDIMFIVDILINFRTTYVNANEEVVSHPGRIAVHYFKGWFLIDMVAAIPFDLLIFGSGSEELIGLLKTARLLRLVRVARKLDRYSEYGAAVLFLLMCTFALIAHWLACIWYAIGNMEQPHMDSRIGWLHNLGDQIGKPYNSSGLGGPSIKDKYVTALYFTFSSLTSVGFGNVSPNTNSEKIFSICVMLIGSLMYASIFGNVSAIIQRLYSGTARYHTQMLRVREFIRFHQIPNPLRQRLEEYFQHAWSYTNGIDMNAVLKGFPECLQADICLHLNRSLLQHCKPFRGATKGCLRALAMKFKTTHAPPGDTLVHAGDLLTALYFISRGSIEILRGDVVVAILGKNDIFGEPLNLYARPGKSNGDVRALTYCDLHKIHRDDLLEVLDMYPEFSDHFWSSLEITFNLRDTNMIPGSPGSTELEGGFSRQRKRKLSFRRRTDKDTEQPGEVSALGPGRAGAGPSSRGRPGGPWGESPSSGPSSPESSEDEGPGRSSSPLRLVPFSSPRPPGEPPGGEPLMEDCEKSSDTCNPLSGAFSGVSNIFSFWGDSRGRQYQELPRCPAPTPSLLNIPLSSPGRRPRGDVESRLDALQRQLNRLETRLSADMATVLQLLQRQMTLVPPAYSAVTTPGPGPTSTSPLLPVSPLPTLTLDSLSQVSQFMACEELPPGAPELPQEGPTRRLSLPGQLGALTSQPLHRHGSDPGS
Catalogue of IC50 values

{"COMPOUND": "FC(F)(F)c1ccc(CCN2CCC(Nc3ncnc4[nH]ncc34)C(F)(F)C2)cc1 (single isomer, unassigned; (+)) [E1-1.5]", "IC50 (µM)": 9.8}
{"COMPOUND": "FC(F)(F)c1ccc(CCN2CCC(Nc3ncnc4[nH]ncc34)C(F)(F)C2)cc1 (single isomer, unassigned; (-)) [E2-1.5]", "IC50 (µM)": 7.6}
{"COMPOUND": "FC(F)c1ccc(CCN2CCC(Nc3ncnc4[nH]ncc34)C(F)(F)C2)cc1 (single isomer, unassigned) [E1-1.6]", "IC50 (µM)": 3.5}
